Source listed as patent US10189853B2.

System: SKOV3 cells
Assay: Antiproliferative SRB assay
Format: cell-based
Settings: 48 h, read-out: IC50 ± SD in SKOV3 cells

>  <compound>
COc1ccc(/C=C\c2cc(OC)c(OC)c(OC)c2)cc1O [CA-4, combretastatin A-4, reference compound]

>  <IC50, nM>
6.9

$$$$
